Source listed as paper PMC7689895.

# Tested on: HCVcc genotype 4
# Procedure details: Antiviral bioassay against ED-43/SG-Feo
# Format: cell-based, hepatitis C virus genotype 4a
# Measurement conditions: nontoxic dose; viral titers 1 × 10^5, 1 × 10^6, 1 × 10^7
Returns one of Criterion met or Criterion not met; Criterion met when mean % of reduction, HCVcc genotype 4 is >= 30%.

Inquiry: Assess whether reported mean % of reduction, HCVcc genotype 4 for N#Cc1cc(-c2nc3ccccc3s2)c(=O)n(NS(=O)(=O)c2ccccc2)c1N [compound 13a] sits at 30% or higher.
Reply text: Criterion met

Inquiry: Would you say N#Cc1cc(-c2nc3ccccc3s2)c(=O)n(NS(=O)(=O)c2ccc(Cl)cc2)c1N [compound 13b] shows mean % of reduction, HCVcc genotype 4 at minimum 30%?
Reply text: Criterion not met

Inquiry: Hi, just wondering whether CCOC(=O)c1cc(-c2nc3ccccc3s2)c(=O)n(NS(=O)(=O)c2ccc(C)cc2)c1N [compound 13f] shows mean % of reduction, HCVcc genotype 4 of 30% or higher.
Reply text: Criterion not met

Inquiry: Given Cc1ccc(S(=O)(=O)Nn2c(N)c(C#N)cc(-c3nc4ccccc4s3)c2=O)cc1 [compound 13c] , state whether its mean % of reduction, HCVcc genotype 4 is at least 30%.
Reply text: Criterion not met

* * *

Could you please report measured nontoxic dose for the items listed next?
# Tested on: Hep-2
# Procedure details: Cytotoxicity test
# Type: cell-based
# Measurement conditions: Hep-2 cell line
One number for each entry, in µg/mL.

>>> observed_value("CCOC(=O)c1cc(-c2nc3ccccc3s2)c(=O)n(NS(=O)(=O)c2ccc(C)cc2)c1N [compound 13f]")
140
>>> observed_value("N#Cc1cc(-c2nc3ccccc3s2)c(=O)n(NS(=O)(=O)c2ccccc2)c1N [compound 13a]")
110
>>> observed_value("N#Cc1cc(-c2nc3ccccc3s2)c(=O)n(NS(=O)(=O)c2ccc(Cl)cc2)c1N [compound 13b]")
100
>>> observed_value("O=c1c(-c2nc3ccccc3s2)cc2c(n1NS(=O)(=O)c1ccc(Cl)cc1)CCCC2 [compound 7b]")
130
>>> observed_value("Cc1ccc(S(=O)(=O)Nn2c(N)c(C#N)cc(-c3nc4ccccc4s3)c2=O)cc1 [compound 13c]")
110

With those in mind, consider the next compound.
Inquiry: Assign nontoxic dose to the following record: O=c1c(-c2nc3ccccc3s2)cc2c(n1NS(=O)(=O)c1ccccc1)CCCC2 [compound 7a]
Reply text: 110

* * *

Can you tell me CC50 for the items I'm about to list?
# Procedure details: Cytotoxicity test
# Assay type: cell-based
# Measurement conditions: African green monkey, uninfected Vero cells
Remember to follow the number with its unit.

>>> observed_value("N#Cc1cc(-c2nc3ccccc3s2)c(=O)n(NS(=O)(=O)c2ccccc2)c1N [compound 13a]")
"280 µg/mL"

Attention now shifts to the item below.
Inquiry: # return recorded CC50 for entry Nc1nc2c(ncn2COCCO)c(=O)[nH]1 [acyclovir, reference compound]
Reply text: 2.8 µg/mL

* * *

# Tested on: FRHK-4
# Procedure details: Cytotoxicity test
# Format: cell-based
# Measurement conditions: FRHK-4 cell line
Please go through the items and note down their nontoxic dose.
Answers are plain numbers, in µg/mL.

Please review the following examples before continuing.
>>> observed_value("N#Cc1cc(-c2nc3ccccc3s2)c(=O)n(NS(=O)(=O)c2ccccc2)c1N [compound 13a]")
110
>>> observed_value("O=c1c(-c2nc3ccccc3s2)cc2c(n1NS(=O)(=O)c1ccccc1)CCCC2")
110

Record nontoxic dose for all entries; do not skip any.
1. CCOC(=O)c1cc(-c2nc3ccccc3s2)c(=O)n(NS(=O)(=O)c2ccc(C)cc2)c1N [compound 13f]
2. N#Cc1cc(-c2nc3ccccc3s2)c(=O)n(NS(=O)(=O)c2ccc(Cl)cc2)c1N [compound 13b]
3. Cc1ccc(S(=O)(=O)Nn2c(N)c(C#N)cc(-c3nc4ccccc4s3)c2=O)cc1 [compound 13c]
4. O=c1c(-c2nc3ccccc3s2)cc2c(n1NS(=O)(=O)c1ccc(Cl)cc1)CCCC2

Reply text:
[140, 100, 110, 130]

* * *

Let's go through some IC50 measurements on USP7 enzyme (Homo sapiens, UniProt Q93009) together.
Sequence (Q93009 whole entry): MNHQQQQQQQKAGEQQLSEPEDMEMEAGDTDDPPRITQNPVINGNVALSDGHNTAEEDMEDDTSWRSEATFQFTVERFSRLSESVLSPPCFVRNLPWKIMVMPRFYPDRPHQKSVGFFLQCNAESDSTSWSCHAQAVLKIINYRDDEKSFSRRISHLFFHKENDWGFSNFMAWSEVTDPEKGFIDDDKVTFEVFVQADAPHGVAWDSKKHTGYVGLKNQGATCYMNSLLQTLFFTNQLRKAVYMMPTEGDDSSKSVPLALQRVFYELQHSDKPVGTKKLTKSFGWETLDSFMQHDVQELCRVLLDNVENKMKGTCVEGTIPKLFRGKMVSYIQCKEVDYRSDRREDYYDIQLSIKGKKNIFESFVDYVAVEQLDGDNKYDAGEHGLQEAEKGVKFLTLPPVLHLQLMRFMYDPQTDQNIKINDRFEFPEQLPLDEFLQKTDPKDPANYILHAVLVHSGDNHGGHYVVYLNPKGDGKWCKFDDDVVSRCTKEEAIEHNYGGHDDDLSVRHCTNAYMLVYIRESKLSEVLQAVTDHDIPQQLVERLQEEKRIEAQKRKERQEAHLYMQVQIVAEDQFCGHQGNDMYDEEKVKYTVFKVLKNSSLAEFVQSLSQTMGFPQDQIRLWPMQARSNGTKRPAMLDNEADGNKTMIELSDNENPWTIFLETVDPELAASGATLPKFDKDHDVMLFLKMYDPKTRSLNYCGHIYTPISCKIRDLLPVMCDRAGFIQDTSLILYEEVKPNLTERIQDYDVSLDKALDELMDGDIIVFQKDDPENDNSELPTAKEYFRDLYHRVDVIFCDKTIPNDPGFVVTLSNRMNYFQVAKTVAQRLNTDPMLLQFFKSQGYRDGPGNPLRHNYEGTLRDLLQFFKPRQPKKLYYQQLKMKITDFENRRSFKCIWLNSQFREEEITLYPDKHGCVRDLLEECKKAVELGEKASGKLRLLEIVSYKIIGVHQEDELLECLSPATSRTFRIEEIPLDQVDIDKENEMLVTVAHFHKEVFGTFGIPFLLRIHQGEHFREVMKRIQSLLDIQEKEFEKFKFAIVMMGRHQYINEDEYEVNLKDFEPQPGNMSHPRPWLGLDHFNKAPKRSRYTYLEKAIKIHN
Answers are plain numbers, in µM.

>>> observed_value("Nc1nc2c(ncn2COCCO)c(=O)[nH]1 [acyclovir, reference compound]")
11

Next item in the queue.
Inquiry: Please indicate IC50 recorded for N#Cc1cc(-c2nc3ccccc3s2)c(=O)n(NS(=O)(=O)c2ccccc2)c1N [compound 13a]
Reply text: 11.3

* * *

# Procedure details: Cytotoxicity test
# Type: cell-based
# Measurement conditions: human, uninfected Hep-2 cells
Measure name: CC50 (µg/mL)
Numbers only, in µg/mL.

Inquiry: Identify measured CC50 corresponding to N#Cc1cc(-c2nc3ccccc3s2)c(=O)n(NS(=O)(=O)c2ccccc2)c1N [compound 13a]
Reply text: 270

* * *

# Test system: Huh 7.5
# Procedure details: Cytotoxicity test
# Format: cell-based
# Measurement conditions: Huh 7.5 cell line
Kindly state nontoxic dose for each of the entries shown.
Give bare numbers, in µg/mL.

>>> observed_value("Cc1ccc(S(=O)(=O)Nn2c(N)c(C#N)cc(-c3nc4ccccc4s3)c2=O)cc1 [compound 13c]")
100
>>> observed_value("O=c1c(-c2nc3ccccc3s2)cc2c(n1NS(=O)(=O)c1ccc(Cl)cc1)CCCC2")
130
>>> observed_value("O=c1c(-c2nc3ccccc3s2)cc2c(n1NS(=O)(=O)c1ccccc1)CCCC2")
100
>>> observed_value("N#Cc1cc(-c2nc3ccccc3s2)c(=O)n(NS(=O)(=O)c2ccc(Cl)cc2)c1N [compound 13b]")
100
>>> observed_value("N#Cc1cc(-c2nc3ccccc3s2)c(=O)n(NS(=O)(=O)c2ccccc2)c1N [compound 13a]")
100

Now take the following molecule into account.
Inquiry: Give reported nontoxic dose value for CCOC(=O)c1cc(-c2nc3ccccc3s2)c(=O)n(NS(=O)(=O)c2ccc(C)cc2)c1N [compound 13f]
Reply text: 140
